ASSAY_TARGET: CYP2C9 (Homo sapiens, UniProt P11712)
Sequence (P11712 whole entry): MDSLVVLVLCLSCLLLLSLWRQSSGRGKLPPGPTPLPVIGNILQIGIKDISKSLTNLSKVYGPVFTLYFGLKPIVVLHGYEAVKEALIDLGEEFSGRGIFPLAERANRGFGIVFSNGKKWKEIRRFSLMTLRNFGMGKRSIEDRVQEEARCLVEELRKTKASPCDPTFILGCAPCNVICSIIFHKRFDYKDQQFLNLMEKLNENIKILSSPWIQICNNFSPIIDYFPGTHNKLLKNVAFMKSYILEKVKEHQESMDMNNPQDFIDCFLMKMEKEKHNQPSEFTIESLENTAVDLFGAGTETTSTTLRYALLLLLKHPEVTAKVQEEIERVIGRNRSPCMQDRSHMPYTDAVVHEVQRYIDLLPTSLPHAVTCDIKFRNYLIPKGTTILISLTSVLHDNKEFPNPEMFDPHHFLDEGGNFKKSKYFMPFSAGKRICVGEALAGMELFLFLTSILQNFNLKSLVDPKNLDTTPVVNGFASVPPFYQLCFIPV
EXPERIMENTAL_PROTOCOL: Inhibition of recombinant CYP2C9-overexpressing microsomes (diclofenac and warfarin probes)
Assay type: in vitro ADME
Set-up: made in house; host or cells: HEK293 cells (microsomal fraction)
SETTINGS: Ki,u, 7′-hydroxylation of warfarin; rec CYP2C9; unbound, adjusted with fu,inc; mean ± SD
I'd be grateful if you could share measured pKi for these entries.
Give bare numbers, as −log10 of the molar value.

COMPOUND | OBSERVED_PROPERTY | OBSERVED
CCCCCc1cc(O)c2c(c1)OC(C)(C)C1CC=C(C)CC21 (centres unmarked) [Δ8-THC, Δ8-Tetrahydrocannabinol] | pKi | 7.05

Consider the additional compound presented here.
Query: Which measured pKi belongs to CCCCCc1cc(O)c2c(c1)OC(C)(C)C1CC=C(CO)CC21 (centres unmarked) [11-OH-Δ8-THC, 11-hydroxy-Δ8-THC] , tested on CYP2C9 (Homo sapiens, UniProt P11712)?
Reply: 6.40
